Data provenance is the supplement of paper PMC10567573.

B1: ACBD3 (parent)
chain: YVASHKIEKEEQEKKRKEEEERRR

Variants of: B1
assay summary: protein stability index of a GFP-peptide fusion (GPS, HEK-293T) (PSI 1-6); higher = more stable;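 note: lentivirally expressed fusions sorted by FACS into six bins by GFP to DsRed ratio, PSI derived from sequencing read proportions per bin multiplied by bin number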
assay conditions: c terminus: a fixed tail appended
Threshold check on protein stability index: at or above 3 gives TRUE, strictly below gives FALSE.

Form field: protein stability index at least 3? Entry: `I7E` FALSE

Form field: protein stability index at least 3? Entry: `E18S` FALSE

Form field: protein stability index at least 3? Entry: `E19M` FALSE

Form field: protein stability index at least 3? Entry: `E10I` FALSE

Form field: protein stability index at least 3? Entry: `R23D` TRUE

Form field: protein stability index at least 3? Entry: `S4W` FALSE

Form field: protein stability index at least 3? Entry: `R16Y` FALSE

Form field: protein stability index at least 3? Entry: `E21D` FALSE

Form field: protein stability index at least 3? Entry: `K17I` FALSE

Form field: protein stability index at least 3? Entry: `Y1V` TRUE

Form field: protein stability index at least 3? Entry: `E20F` FALSE

Form field: protein stability index at least 3? Entry: `S4N` FALSE

Form field: protein stability index at least 3? Entry: `A3R` FALSE

Form field: protein stability index at least 3? Entry: `K17V` FALSE

Form field: protein stability index at least 3? Entry: `Q12Y` FALSE

Form field: protein stability index at least 3? Entry: `I7M` FALSE

Form field: protein stability index at least 3? Entry: `Q12F` FALSE

Form field: protein stability index at least 3? Entry: `V2K` TRUE

Form field: protein stability index at least 3? Entry: `K6Y` FALSE

Form field: protein stability index at least 3? Entry: `K15C` FALSE

Form field: protein stability index at least 3? Entry: `R23K` FALSE

Form field: protein stability index at least 3? Entry: `Q12T` FALSE

Form field: protein stability index at least 3? Entry: `R23S` FALSE

Form field: protein stability index at least 3? Entry: `K15L` FALSE

Form field: protein stability index at least 3? Entry: `E20G` FALSE

Form field: protein stability index at least 3? Entry: `E21I` FALSE

Form field: protein stability index at least 3? Entry: `V2F` TRUE

Form field: protein stability index at least 3? Entry: `Q12I` TRUE

Form field: protein stability index at least 3? Entry: `K6S` FALSE

Form field: protein stability index at least 3? Entry: `E13K` FALSE

Form field: protein stability index at least 3? Entry: `A3C` FALSE

Form field: protein stability index at least 3? Entry: `E13H` FALSE

Form field: protein stability index at least 3? Entry: `V2D` TRUE
